- Test system: rodent lifetime carcinogenesis bioassay, tumor incidence TD50
- ASSAY PROCEDURE: carcinogenic potency in animals, long-term in vivo studies, CPDB compilation (AID 1745844)
- RUN CONDITIONS: mouse; strain B6C3F1; females; in feed; site: lung; lesion: alveolar/bronchiolar adenoma + alveolar/bronchiolar carcinoma; dosed 80 weeks; study length 90 weeks
QUANTITY: TD50 (mg/kg/day)
Field format: number, assumed mg/kg/day, no unit text.

INPUT: Look up TD50 with rodent lifetime carcinogenesis bioassay, tumor incidence TD50 for this compound: ClC1=C(Cl)[C@]2(Cl)[C@@H]3[C@H]4C[C@H]([C@@H]5O[C@H]45)[C@@H]3[C@@]1(Cl)C2(Cl)Cl
OUTPUT: 67

INPUT: Subsequent entry: ClC1=C(Cl)[C@]2(Cl)[C@H]3[C@H]([C@@H]4C=C[C@H]3C4)[C@@]1(Cl)C2(Cl)Cl
OUTPUT: 9.02

INPUT: Subsequent entry: ClC1=C(Cl)C2(Cl)C3C(Cl)C(Cl)CC3C1(Cl)C2(Cl)Cl (stereo not drawn)
OUTPUT: 228
